Test system: 935938-334-R-J1-PDC complex spheroid viability
Assay: Anticancer human tumor 935938-334-R-J1-PDC patient-derived small intestine adenocarcinoma cell line growth inhibition [POLQ]
Settings: second compound 0.1 µM; first compound 0.1 µM; stronger effect = lower value
readoutType: viability, T/C (%)
Numbers only, in %.

Reference set, count: 6
O=C(Nc1ccc(O)c(NS(=O)(=O)c2ccc(F)cc2)c1)c1ccc(-c2ccccc2)cc1 + Nc1ccc(C#CCN(C(=O)Cc2ncc(C(F)(F)F)cc2C(F)(F)F)c2ccc(F)cc2)nn1 ... 83.1
CCc1c2c(nc3ccc(O)cc13)-c1cc3c(c(=O)n1C2)COC(=O)[C@]3(O)CC + Cc1cccc(N(C)C(=O)C2C(O)CCN2c2nc(C)cc(C(F)(F)F)c2C#N)c1 ... 32.5
COc1ccc([C@@H](O)c2cc(-c3ncnc4cc(N5CCOCC5)ccc34)c(F)cc2Cl)nn1 + Nc1ccc(C#CCN(C(=O)Cc2ncc(C(F)(F)F)cc2C(F)(F)F)c2ccc(F)cc2)nn1 ... 98.5
COc1cccc2c1C(=O)c1c(O)c3c(c(O)c1C2=O)CC(O)(C(=O)CO)CC3OC1CC(N)C(O)C(C)O1 (configuration not stated) + Cc1cccc(N(C)C(=O)C2C(O)CCN2c2nc(C)cc(C(F)(F)F)c2C#N)c1 ... 48.5
O=C(Nc1ccc(O)c(NS(=O)(=O)c2ccc(F)cc2)c1)c1ccc(-c2ccccc2)cc1 + Cc1cccc(N(C)C(=O)C2C(O)CCN2c2nc(C)cc(C(F)(F)F)c2C#N)c1 ... 73.9
O=c1[nH]cc(F)c(=O)[nH]1 + Cc1cccc(N(C)C(=O)C2C(O)CCN2c2nc(C)cc(C(F)(F)F)c2C#N)c1 ... 127

Turning now to a further record.
-- ask Form entry - test system: 935938-334-R-J1-PDC complex spheroid viability; read-out: viability, T/C; compound: CCc1c2c(nc3ccc(O)cc13)-c1cc3c(c(=O)n1C2)COC(=O)[C@]3(O)CC + Nc1ccc(C#CCN(C(=O)Cc2ncc(C(F)(F)F)cc2C(F)(F)F)c2ccc(F)cc2)nn1
-- reply 29.6

----------
Tested on: 935938-334-R-J1-PDC complex spheroid viability
Assay: Anticancer human tumor 935938-334-R-J1-PDC cell line growth inhibition [POLQ];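 further: spheroids exposed to drugs for seven days before viability read; 100% = DMSO vehicle control wells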
Settings: second compound 3.16 µM; first compound 1 µM; stronger effect = lower value
viability, T/C vs 80%: less than gives 1; not less than gives 0.

-- ask Please check: viability, T/C for COc1cccc2c1C(=O)c1c(O)c3c(c(O)c1C2=O)CC(O)(C(=O)CO)CC3OC1CC(N)C(O)C(C)O1 (stereo unspecified) + Nc1ccc(C#CCN(C(=O)Cc2ncc(C(F)(F)F)cc2C(F)(F)F)c2ccc(F)cc2)nn1 , strictly under 80% or not?
-- reply 1

-- ask Please check: viability, T/C for Nc1ccn(C2OC(CO)C(O)C2(F)F)c(=O)n1 (stereo unspecified) + Cc1cccc(N(C)C(=O)C2C(O)CCN2c2nc(C)cc(C(F)(F)F)c2C#N)c1 , strictly under 80% or not?
-- reply 1

----------
Tested on: 935938-334-R-J1-PDC complex spheroid viability
Assay: Anticancer human tumor 935938-334-R-J1-PDC cell line growth inhibition [POLQ];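 further: spheroids exposed to drugs for seven days before viability read; 100% = DMSO vehicle control wells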
Settings: second compound 0.0316 µM; first compound 10 µM; stronger effect = lower value
readoutType: viability, T/C (%)
Give bare numbers, in %.

Reference set, count: 2
COc1ccc([C@@H](O)c2cc(-c3ncnc4cc(N5CCOCC5)ccc34)c(F)cc2Cl)nn1 + COC1C(OC(N)=O)C(O)C(Oc2ccc3c(O)c(NC(=O)c4ccc(O)c(CC=C(C)C)c4)c(=O)oc3c2C)OC1(C)C ... 36.3
C=CC(=O)N1CCN(c2nc(=O)n(-c3c(C)ccnc3C(C)C)c3nc(-c4c(O)cccc4F)c(F)cc23)C(C)C1 (stereo not drawn) + Nc1ccc(C#CCN(C(=O)Cc2ncc(C(F)(F)F)cc2C(F)(F)F)c2ccc(F)cc2)nn1 ... 112

-- ask Dear colleague, I am looking for the recorded viability, T/C of the following compound: COc1ccc([C@@H](O)c2cc(-c3ncnc4cc(N5CCOCC5)ccc34)c(F)cc2Cl)nn1 + Cc1cccc(N(C)C(=O)C2C(O)CCN2c2nc(C)cc(C(F)(F)F)c2C#N)c1
-- reply 39.9
